// reported EC50 for each item listed
- assaySystem: human TLR8 (Homo sapiens, UniProt Q9NR97)
- Sequence (Q9NR97 27-1041): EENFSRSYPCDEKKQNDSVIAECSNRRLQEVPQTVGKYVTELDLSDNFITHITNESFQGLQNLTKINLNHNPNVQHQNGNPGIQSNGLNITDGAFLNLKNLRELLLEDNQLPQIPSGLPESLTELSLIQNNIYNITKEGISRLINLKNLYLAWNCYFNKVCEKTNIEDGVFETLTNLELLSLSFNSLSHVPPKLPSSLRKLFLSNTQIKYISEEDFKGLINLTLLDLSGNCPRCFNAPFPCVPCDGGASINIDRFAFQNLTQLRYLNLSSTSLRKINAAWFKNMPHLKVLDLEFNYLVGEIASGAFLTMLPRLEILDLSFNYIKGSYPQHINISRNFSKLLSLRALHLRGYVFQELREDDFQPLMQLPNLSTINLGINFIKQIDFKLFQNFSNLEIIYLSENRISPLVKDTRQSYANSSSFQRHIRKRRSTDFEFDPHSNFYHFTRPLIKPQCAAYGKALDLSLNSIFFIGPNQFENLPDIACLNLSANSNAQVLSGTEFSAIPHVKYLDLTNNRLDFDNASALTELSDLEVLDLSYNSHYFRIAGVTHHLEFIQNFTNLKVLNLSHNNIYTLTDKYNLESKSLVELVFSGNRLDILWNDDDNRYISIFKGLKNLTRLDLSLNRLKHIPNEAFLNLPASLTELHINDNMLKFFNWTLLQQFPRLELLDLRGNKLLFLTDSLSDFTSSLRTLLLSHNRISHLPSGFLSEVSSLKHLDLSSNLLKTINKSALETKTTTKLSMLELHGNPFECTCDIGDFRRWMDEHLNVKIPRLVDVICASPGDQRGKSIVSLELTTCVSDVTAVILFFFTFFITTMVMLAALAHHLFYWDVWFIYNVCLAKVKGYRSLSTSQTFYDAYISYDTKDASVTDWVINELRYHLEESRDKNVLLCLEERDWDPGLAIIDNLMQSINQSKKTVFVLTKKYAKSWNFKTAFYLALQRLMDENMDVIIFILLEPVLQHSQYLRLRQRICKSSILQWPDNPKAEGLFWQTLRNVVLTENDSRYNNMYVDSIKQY
- assaySummary: HEK-Blue hTLR8 SEAP reporter gene agonism assay
- conditionLabel: HEK-Blue hTLR8 cells, SEAP (Quanti-blue, 650 nm), 16-22 hours incubation
reportedProperty: EC50 (nM)

INSERT INTO measurements (molecule, assaysystem, reportedproperty, reportedvalue) VALUES
  ('CCC[C@@H](C)Nc1nc(N)nc2cnn(Cc3ccc(CNCCO)cc3)c(=O)c12 [Compound I-42]', 'human TLR8 (Homo sapiens, UniProt Q9NR97)', 'EC50', 74),
  ('CCC[C@@H](C)Nc1nc(N)nc2cnn(Cc3ccc(CN4CCNCC4)cc3)c(=O)c12 [Compound I-50]', 'human TLR8 (Homo sapiens, UniProt Q9NR97)', 'EC50', 157),
  ('CCC[C@@H](C)Nc1nc(N)nc2cnn(Cc3ccc(C4CCN(C)CC4)cc3)c(=O)c12 [Compound I-57]', 'human TLR8 (Homo sapiens, UniProt Q9NR97)', 'EC50', 107),
  ('CCCN[C@H](C)c1ccc(Cn2ncc3nc(N)nc(N[C@H](C)CCC)c3c2=O)cc1 [Compound I-51]', 'human TLR8 (Homo sapiens, UniProt Q9NR97)', 'EC50', 141),
  ('CCC[C@@H](C)Nc1nc(N)nc2cnn(Cc3ccc(OCCNC)nc3)c(=O)c12 [Compound I-47]', 'human TLR8 (Homo sapiens, UniProt Q9NR97)', 'EC50', 70),
  ('CCC[C@@H](C)Nc1nc(N)nc2cnn(Cc3ccc(OCCNC)nc3OC)c(=O)c12 [Compound I-53]', 'human TLR8 (Homo sapiens, UniProt Q9NR97)', 'EC50', 175),
  ('CCC[C@@H](CO)Nc1nc(N)nc2cnn(Cc3ccc(CN4CCN(C)CC4)cc3)c(=O)c12 [Compound I-66]', 'human TLR8 (Homo sapiens, UniProt Q9NR97)', 'EC50', 23),
  ('CCC[C@@H](C)Nc1nc(N)nc2cnn(Cc3ccc(CN4CCCC4)cc3OC)c(=O)c12 [Compound I-25]', 'human TLR8 (Homo sapiens, UniProt Q9NR97)', 'EC50', 147),
  ('CCCCNc1nc(N)nc2cnn(Cc3ccc(CNC4CC4)cc3)c(=O)c12 [Compound I-10]', 'human TLR8 (Homo sapiens, UniProt Q9NR97)', 'EC50', 569),
  ('CCC[C@@H](C)Nc1nc(N)nc2cnn(Cc3ccc(OCCNC)cc3)c(=O)c12 [Compound I-39]', 'human TLR8 (Homo sapiens, UniProt Q9NR97)', 'EC50', 181);
